Origin of values: paper PMC9102847

Form: system (DNMT3A (Homo sapiens, UniProt Q9Y6K1)), quantity (IC50), values below.

- mol-smiles: "COc1cc2c(NC3CCN(CC4CCCCC4)CC3)nc(N3CCCN(C(C)C)CC3)nc2cc1OCCCN1CCCCC1"
  measure-unit: "µM"
  IC50: 14.7
- mol-smiles: "Nc1ncnc2c1ncn2[C@@H]1O[C@H](CSCC[C@H](N)C(=O)O)[C@@H](O)[C@H]1O"
  measure-unit: "µM"
  IC50: 0.1

====

Reported pIC50 by item:
experimental-target: DNMT3B (Homo sapiens, UniProt Q9UBC3)
Construct: purchased Reaction Biology Corporation
procedure-details: HotSpot radioisotope methyltransferase inhibition assay, DNMT3B
Type: biochemical
assay-context: read-out: DNMT3B IC50
pIC50: −log10 of the molar value.

- mol-smiles: "COc1cc2c(NC3CCN(C4CCCCC4)CC3)nc(N3CCCN(C(C)C)CC3)nc2cc1OCCCN1CCCCC1"
  experimental-target: "DNMT3B (Homo sapiens, UniProt Q9UBC3)"
  pIC50: "< 4.00"
- mol-smiles: "COc1cc2c(NC3CCN(CC4CCCCC4)CC3)nc(N3CCCN(C(C)C)CC3)nc2cc1OCCCN1CCCCC1"
  experimental-target: "DNMT3B (Homo sapiens, UniProt Q9UBC3)"
  pIC50: "< 4.00"
